Taken from patent US20150057443A1.

Molecular target: human recombinant DAT (Homo sapiens)
Sequence (Q01959 whole entry): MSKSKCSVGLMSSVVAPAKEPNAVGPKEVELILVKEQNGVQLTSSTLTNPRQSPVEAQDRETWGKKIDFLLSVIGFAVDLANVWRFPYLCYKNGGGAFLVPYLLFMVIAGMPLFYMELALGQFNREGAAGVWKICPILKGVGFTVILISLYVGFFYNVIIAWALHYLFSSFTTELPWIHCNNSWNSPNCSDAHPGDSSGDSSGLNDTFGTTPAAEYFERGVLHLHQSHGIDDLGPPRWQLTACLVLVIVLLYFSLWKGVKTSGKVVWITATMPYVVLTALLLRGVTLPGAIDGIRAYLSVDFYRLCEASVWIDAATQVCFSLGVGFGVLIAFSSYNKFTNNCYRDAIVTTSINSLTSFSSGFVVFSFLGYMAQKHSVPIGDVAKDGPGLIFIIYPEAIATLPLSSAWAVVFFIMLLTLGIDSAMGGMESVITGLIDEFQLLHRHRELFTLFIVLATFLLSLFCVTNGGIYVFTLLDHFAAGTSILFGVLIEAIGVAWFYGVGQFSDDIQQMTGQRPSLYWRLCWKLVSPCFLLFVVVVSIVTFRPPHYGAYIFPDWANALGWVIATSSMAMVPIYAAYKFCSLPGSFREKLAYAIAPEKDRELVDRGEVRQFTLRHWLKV
Assay: DAT radioligand binding assay (scintillation proximity, [3H]WIN-35428)
Procedure: Affinity of the compounds for monoamine transporters was determined by in vitro radioligand binding assays using cell membrane preparations derived from HEK293 cell lines stably expressing human recombinant DAT, NET or SERT receptor (Suven Life Sciences, Hyderabad, India). […] A scintillation proximity assay was used to measure receptor binding. […] Plates were incubated for three hours and raw data counts recorded using a liquid scintillation counter (MicroBetaTriLux Counter, Perkin Elmer). […]
This section presents compounds with their documented Ki values.
Property Measured: Ki

| Compound | Result |
| --- | --- |
| CCN(CC)CC(O)C1(c2ccc(Cl)c(Cl)c2)CCC1 (stereo not shown) | 11 to 100 nM |
| O=C(CN1CCCCC1)C1(c2ccc(Cl)c(Cl)c2)CCC1 | 11 to 100 nM |
| OC(CN1CC2CC(F)C1C2)C1(c2ccc(Cl)c(Cl)c2)CCC1 (stereo not shown) | 101 to 500 nM |
| O=C(CN1CCCCC1)C1(c2ccc(Cl)c(Cl)c2)CCCC1 | 11 to 100 nM |
| OC(CN1CCC(F)CC1)C1(c2ccc(Cl)c(Cl)c2)CCC1 (stereo not shown) | < 10 nM |
| OC(CN1CCCC1)C1(c2ccc(Cl)c(Cl)c2)CCC1 (stereo not shown) | 11 to 100 nM |
| CC(F)C(C)NCC(O)C1(c2ccc(Cl)c(Cl)c2)CCC1 (stereo not shown) | 11 to 100 nM |
| OC(CN1CCCCC1)C1(c2ccc(Cl)c(Cl)c2)CCC1 (stereo not shown) | 11 to 100 nM |
| OC(CN1CCCCC1)C1(c2ccccc2)CCC1 (stereo not shown) | > 500 nM |
| O=C(CN1CCCCC1)C1(c2ccccc2)CCC1 | > 500 nM |

---

Target: human recombinant SERT (Homo sapiens)
Construct: membranes)
Sequence (P31645 whole entry): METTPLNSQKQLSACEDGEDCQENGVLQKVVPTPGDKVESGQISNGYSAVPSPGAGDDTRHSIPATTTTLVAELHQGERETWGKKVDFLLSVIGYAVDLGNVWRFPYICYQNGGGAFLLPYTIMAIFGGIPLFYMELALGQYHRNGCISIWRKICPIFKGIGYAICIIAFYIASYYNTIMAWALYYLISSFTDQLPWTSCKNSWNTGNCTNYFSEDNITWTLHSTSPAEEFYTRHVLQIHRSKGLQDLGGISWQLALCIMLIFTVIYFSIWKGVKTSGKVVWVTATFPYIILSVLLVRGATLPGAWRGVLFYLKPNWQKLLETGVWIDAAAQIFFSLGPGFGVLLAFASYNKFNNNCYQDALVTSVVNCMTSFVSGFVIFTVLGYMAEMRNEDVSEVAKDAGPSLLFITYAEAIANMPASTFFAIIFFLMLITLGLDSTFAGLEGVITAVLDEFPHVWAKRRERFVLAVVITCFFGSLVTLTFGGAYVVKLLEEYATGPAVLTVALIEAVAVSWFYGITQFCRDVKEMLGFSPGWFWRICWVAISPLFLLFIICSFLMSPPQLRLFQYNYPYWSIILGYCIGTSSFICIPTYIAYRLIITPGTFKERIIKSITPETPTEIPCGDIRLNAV
Assay: SERT radioligand binding assay (scintillation proximity, [3H]citalopram)
Details: HEK293 cell membranes expressing human recombinant SERT; [3H]citalopram; SPA; read-out: SERT Ki
This section presents compounds with their documented Ki values.
Property Measured: Ki

| Compound | Result |
| --- | --- |
| O=C(CN1CCCCC1)C1(c2ccc(Cl)c(Cl)c2)CCC1 [Compound 67] | 101 to 500 nM |
| O=C(CN1CCCCC1)C1(c2ccc(Cl)c(Cl)c2)CCCC1 [Compound 61] | > 500 nM |
| CC(C)(C)NCC(O)C1(c2ccc(Cl)c(Cl)c2)CCC1 (centres unmarked) [Compound 20] | 101 to 500 nM |
| CCN(CC(O)C1(c2ccc(Cl)c(Cl)c2)CCC1)C(C)C (centres unmarked) [Compound 47] | 101 to 500 nM |
| OC(CN1CC2CC(F)C1C2)C1(c2ccc(Cl)c(Cl)c2)CCC1 (centres unmarked) [Compound 39] | > 500 nM |

---

This section presents compounds with their documented Ki values.
Target: human recombinant NET (Homo sapiens)
Construct: membranes)
Sequence (P23975 whole entry): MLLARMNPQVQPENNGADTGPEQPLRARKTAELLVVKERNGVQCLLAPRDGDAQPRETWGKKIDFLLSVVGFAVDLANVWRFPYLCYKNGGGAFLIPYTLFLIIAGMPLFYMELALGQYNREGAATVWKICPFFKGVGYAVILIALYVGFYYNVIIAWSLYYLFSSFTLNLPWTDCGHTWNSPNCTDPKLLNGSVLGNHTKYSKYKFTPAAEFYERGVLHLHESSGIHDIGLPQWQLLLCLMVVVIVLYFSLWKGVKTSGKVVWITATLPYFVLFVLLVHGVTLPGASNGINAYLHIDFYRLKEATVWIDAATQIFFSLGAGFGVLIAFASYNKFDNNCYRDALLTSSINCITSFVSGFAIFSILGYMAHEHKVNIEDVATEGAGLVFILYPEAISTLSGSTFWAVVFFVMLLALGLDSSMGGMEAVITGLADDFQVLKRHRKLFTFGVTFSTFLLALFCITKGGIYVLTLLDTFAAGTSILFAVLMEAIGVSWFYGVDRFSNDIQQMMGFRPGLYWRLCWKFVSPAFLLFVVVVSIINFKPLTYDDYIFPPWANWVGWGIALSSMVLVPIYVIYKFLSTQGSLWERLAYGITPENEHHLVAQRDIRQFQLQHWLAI
Assay: NET radioligand binding assay (scintillation proximity, [3H]nisoxetine)
Conditions: HEK293 cell membranes expressing human recombinant NET; [3H]nisoxetine; SPA; read-out: NET Ki

| Compound | Ki |
| --- | --- |
| CC(C)NCC(O)C1(c2ccc(Cl)c(Cl)c2)CCC1 (stereo not drawn) | 11 to 100 nM |
| OC(CN1CCCCCC1)C1(c2ccc(Cl)c(Cl)c2)CCC1 (stereo not drawn) | 101 to 500 nM |
| OC(CN1CCOCC1)C1(c2ccc(Cl)c(Cl)c2)CCC1 (stereo not drawn) | > 500 nM |
| Clc1ccc(C2(CN3CCCCC3)CCC2)cc1Cl | 11 to 100 nM |
| CCCN(CC)CC(O)C1(c2ccc(Cl)c(Cl)c2)CCC1 (stereo not drawn) | 11 to 100 nM |
| OC(CN1CCCC(F)(F)C1)C1(c2ccc(Cl)c(Cl)c2)CCC1 (stereo not drawn) | 101 to 500 nM |
| O=C(CN1CCCCC1)C1(c2ccc(Cl)c(Cl)c2)CCC1 | > 500 nM |
| CC1(C)COCCN1CC(O)C1(c2ccc(Cl)c(Cl)c2)CCC1 (stereo not drawn) | 11 to 100 nM |
| CC(CF)NCC(O)C1(c2ccc(Cl)c(Cl)c2)CCC1 (stereo not drawn) | 101 to 500 nM |
| O=C(CN1CCCCC1)C1(c2ccc(Cl)c(Cl)c2)CCCC1 | > 500 nM |
| OC(CNC1CCC1)C1(c2ccc(Cl)c(Cl)c2)CCC1 (stereo not drawn) | 101 to 500 nM |
| OC(CN1CCC(F)(F)CC1)C1(c2ccc(Cl)c(Cl)c2)CCC1 (stereo not drawn) | > 500 nM |
| OC(CN1CCCCC1)C1(c2cccc(Cl)c2)CCC1 (stereo not drawn) | > 500 nM |
| CCN(CC(O)C1(c2ccc(Cl)c(Cl)c2)CCC1)C(C)C (stereo not drawn) | 11 to 100 nM |
| OC(CN1CCCCC1)C1(c2ccc(Cl)c(Cl)c2)CCCC1 (stereo not drawn) | 101 to 500 nM |
| CC1(NCC(O)C2(c3ccc(Cl)c(Cl)c3)CCC2)CCC1 (stereo not drawn) | 11 to 100 nM |
| OC(CN1CCCCC1)C1(c2ccc(Cl)cc2)CCC1 (stereo not drawn) | > 500 nM |
| CCN(CC)CC(O)C1(c2ccc(Cl)c(Cl)c2)CCC1 (stereo not drawn) | 11 to 100 nM |
| OC(CN1CCCC(F)C1)C1(c2ccc(Cl)c(Cl)c2)CCC1 (stereo not drawn) | 11 to 100 nM |
| O=C(CN1CCCCC1)C1(c2cccc(Cl)c2)CCC1 | > 500 nM |
| CC(F)C(C)NCC(O)C1(c2ccc(Cl)c(Cl)c2)CCC1 (stereo not drawn) | 101 to 500 nM |
| COC1CCCN(CC(O)C2(c3ccc(Cl)c(Cl)c3)CCC2)C1 (stereo not drawn) | 101 to 500 nM |
| OC(CN1CCCC1)C1(c2ccc(Cl)c(Cl)c2)CCC1 (stereo not drawn) | 101 to 500 nM |
| CC(O)(CN1CCCCC1)C1(c2ccc(Cl)c(Cl)c2)CCC1 (stereo not drawn) | 101 to 500 nM |
| Clc1cccc(C2(CN3CCCCC3)CCC2)c1 | > 500 nM |
| OC(CN1CC2CCC1C2)C1(c2ccc(Cl)c(Cl)c2)CCC1 (stereo not drawn) | 11 to 100 nM |
| OC(CN1CCCCC1)C1(c2ccccc2)CCC1 (stereo not drawn) | > 500 nM |
| OC(CN1CC2CC(F)C1C2)C1(c2ccc(Cl)c(Cl)c2)CCC1 (stereo not drawn) | 101 to 500 nM |
| OC(CN1CC2CC1CO2)C1(c2ccc(Cl)c(Cl)c2)CCC1 (stereo not drawn) | 101 to 500 nM |
| OC(CN1CCCCC1)C1(c2ccc(Cl)c(Cl)c2)CCC1 (stereo not drawn) | 101 to 500 nM |
| O[C@@H](CN1CCCCC1)C1(c2ccc(Cl)c(Cl)c2)CCC1 | 101 to 500 nM |
| c1ccc(C2(CN3CCCCC3)CCC2)cc1 | > 500 nM |
| Clc1ccc(C2(CN3CCCCC3)CCC2)cc1 | > 500 nM |
| COC(CN1CCCCC1)C1(c2ccc(Cl)c(Cl)c2)CCC1 (stereo not drawn) | > 500 nM |
| N#CC1CCCN(CC(O)C2(c3ccc(Cl)c(Cl)c3)CCC2)C1 (stereo not drawn) | 101 to 500 nM |
| OC(CN1CCCCC1)C1(c2ccc3ccccc3c2)CCC1 (stereo not drawn) | 11 to 100 nM |
| OC(CNC1CC1)C1(c2ccc(Cl)c(Cl)c2)CCC1 (stereo not drawn) | 101 to 500 nM |
| CC1(NCC(O)C2(c3ccc(Cl)c(Cl)c3)CCC2)CC1 (stereo not drawn) | 11 to 100 nM |
| CC(C)(C)NCC(O)C1(c2ccc(Cl)c(Cl)c2)CCC1 (stereo not drawn) | 11 to 100 nM |
| O=C(CN1CCCCC1)C1(c2ccccc2)CCC1 | > 500 nM |
| O[C@H](CN1CCCCC1)C1(c2ccc(Cl)c(Cl)c2)CCC1 | 11 to 100 nM |
| OC(CN1CCC(F)CC1)C1(c2ccc(Cl)c(Cl)c2)CCC1 (stereo not drawn) | 101 to 500 nM |
